target: Jack Bean Urease (Canavalia ensiformis, UniProt P07374); assay: biochemical
Sequence (P07374 whole entry, looked up): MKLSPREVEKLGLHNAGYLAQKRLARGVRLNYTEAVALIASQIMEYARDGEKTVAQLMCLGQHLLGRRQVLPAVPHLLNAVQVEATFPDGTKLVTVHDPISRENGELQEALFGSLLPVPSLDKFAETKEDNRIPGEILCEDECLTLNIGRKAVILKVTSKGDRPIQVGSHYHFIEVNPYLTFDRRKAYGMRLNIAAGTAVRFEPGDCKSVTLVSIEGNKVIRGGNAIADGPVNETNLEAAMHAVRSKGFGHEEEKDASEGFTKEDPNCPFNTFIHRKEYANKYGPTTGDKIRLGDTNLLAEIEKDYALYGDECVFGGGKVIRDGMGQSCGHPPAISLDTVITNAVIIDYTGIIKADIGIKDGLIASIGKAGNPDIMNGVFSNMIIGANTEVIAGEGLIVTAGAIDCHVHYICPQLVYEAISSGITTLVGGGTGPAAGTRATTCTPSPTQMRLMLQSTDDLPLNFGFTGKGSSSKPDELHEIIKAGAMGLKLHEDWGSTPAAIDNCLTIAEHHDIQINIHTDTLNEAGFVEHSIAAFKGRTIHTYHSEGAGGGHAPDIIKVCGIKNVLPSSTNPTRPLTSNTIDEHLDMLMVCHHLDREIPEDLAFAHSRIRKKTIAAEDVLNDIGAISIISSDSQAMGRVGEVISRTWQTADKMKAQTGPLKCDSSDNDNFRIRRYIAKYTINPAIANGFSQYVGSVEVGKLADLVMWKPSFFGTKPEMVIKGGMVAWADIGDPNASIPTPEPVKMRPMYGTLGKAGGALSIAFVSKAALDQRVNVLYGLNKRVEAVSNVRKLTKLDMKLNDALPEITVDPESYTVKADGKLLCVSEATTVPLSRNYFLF
Quick rule: inhibition at 75 µg/mL of at least 60% means True, below that means False.

                                   compound                               test_system  assigned_category
0  CCCCCCCCCCCCCCCc1nnc(S)n1N=Cc1ccccc1O [Compound T7]  Jack Bean Urease (Canavalia ensiformis, UniProt P07374)               True
1  CCCCCCCCCCCCCCCc1nnc(S)n1N=Cc1ccc([N+](=O)[O-])cc1 [Compound T17]  Jack Bean Urease (Canavalia ensiformis, UniProt P07374)              False
2  CCCCCCCCCCCCCCCc1nnc(S)n1N=Cc1ccc(Br)cc1 [Compound T14]  Jack Bean Urease (Canavalia ensiformis, UniProt P07374)              False
3  CCCCCCCCCCCCCCCc1nnc(S)n1N=Cc1ccc(C=O)cc1 [Compound T2]  Jack Bean Urease (Canavalia ensiformis, UniProt P07374)              False
4  CCCCCCCCCCCCCCCc1nnc(S)n1N=Cc1ccc(OC)c(OC)c1 [Compound T4]  Jack Bean Urease (Canavalia ensiformis, UniProt P07374)               True
5  CCCCCCCCCCCCCCCc1nnc(S)n1N=Cc1cccc(Br)c1 [Compound T13]  Jack Bean Urease (Canavalia ensiformis, UniProt P07374)               True
6  CCCCCCCCCCCCCCCc1nnc(S)n1N=Cc1ccc(OC)c(O)c1 [Compound T6]  Jack Bean Urease (Canavalia ensiformis, UniProt P07374)               True

Please find the next compound below.
Prompt: Hi, just wondering whether CCCCCCCCCCCCCCCc1nnc(S)n1N=Cc1ccc(C)cc1 [Compound T3] shows inhibition at 75 µg/mL of 60% or higher.
Completion: True

----------
Listed here: items and their measured inhibition at 50 µg/mL.
target: Jack Bean Urease (Canavalia ensiformis, UniProt P07374); test: biochemical
Report the figure in % without appending any unit label.

Prompt: inhibition at 50 µg/mL lookup needed for `CCCCCCCCCCCCCCCc1nnc(S)n1N=Cc1ccccc1` , thanks.
Completion: 48

Prompt: Next up: `CCCCCCCCCCCCCCCc1nnc(S)n1N=Cc1ccc(O)cc1`
Completion: 39.6

Prompt: Next up: `CCCCCCCCCCCCCCCc1nnc(S)n1N=Cc1ccc(C)cc1`
Completion: 50

Prompt: Next up: `CCCCCCCCCCCCCCCc1nnc(S)n1N=Cc1ccc(Cl)cc1Cl`
Completion: 46.6

----------
target: Jack Bean Urease (Canavalia ensiformis, UniProt P07374); assay: biochemical
Result type: inhibition at 25 µg/mL (%)
Report the figure in % without appending any unit label.

// below: answered compounds
                                   compound  readout_value
0  CCCCCCCCCCCCCCCc1nnc(S)n1N=Cc1ccc(Cl)cc1 [Compound T11]             25
1  CCCCCCCCCCCCCCCc1nnc(S)n1N=Cc1ccccc1 [Compound T1]           25.8
2  CCCCCCCCCCCCCCCc1nnc(S)n1N=Cc1cccc([N+](=O)[O-])c1 [Compound T16]           45.8
3  CCCCCCCCCCCCCCCc1nnc(S)n1N=Cc1cc(OC)c(OC)c(OC)c1 [Compound T5]           23.3

Prompt: inhibition at 25 µg/mL lookup needed for CCCCCCCCCCCCCCCc1nnc(S)n1N=Cc1ccc(Cl)cc1Cl [Compound T12] , thanks.
Completion: 43.6

Prompt: Next up: CCCCCCCCCCCCCCCc1nnc(S)n1N=Cc1ccc(N(C)C)cc1 [Compound T9]
Completion: 33.5

Prompt: Next up: CCCCCCCCCCCCCCCc1nnc(S)n1N=Cc1cccc(Br)c1 [Compound T13]
Completion: 26.6

Prompt: Next up: CCCCCCCCCCCCCCCc1nnc(S)n1N=Cc1cccc(Cl)c1 [Compound T10]
Completion: 27.9

Prompt: Next up: CCCCCCCCCCCCCCCc1nnc(S)n1N=Cc1ccc(O)cc1 [Compound T8]
Completion: 22.4

----------
Target: Jack Bean Urease (Canavalia ensiformis)
Experiment: biochemical
Description: Urease inhibitory potential for each synthesisized compound (T1–T20) was evaluated using Jack Bean Urease by Indophenol method (Table 5, Figs. 9, 10, 11). […] Absorbance of reaction mixture was recorded by ELISA at 570 nm. Ammonium carbonate increased the pH of phosphate buffer from 6.8 to 7.7 which was produced from urea by urease enzyme and the end peak was measured by the colour of phenol red indicator [16]. […]
Listed here: items and their measured inhibition at 75 µg/mL.

// below: answered molecules
In [3]: df
Out[3]:
                                smiles_data                              test_system  readout_value
0  CCCCCCCCCCCCCCCc1nnc(S)n1N=Cc1cccc([N+](=O)[O-])c1  Jack Bean Urease (Canavalia ensiformis)          53.9%
1  CCCCCCCCCCCCCCCc1nnc(S)n1N=Cc1ccc(Cl)cc1  Jack Bean Urease (Canavalia ensiformis)          68.9%
2   CCCCCCCCCCCCCCCc1nnc(S)n1N=Cc1ccc(O)cc1  Jack Bean Urease (Canavalia ensiformis)          68.6%
3  CCCCCCCCCCCCCCCc1nnc(S)n1N=Cc1ccccc1[N+](=O)[O-]  Jack Bean Urease (Canavalia ensiformis)          61.8%
4  CCCCCCCCCCCCCCCc1nnc(S)n1N=Cc1ccc(N(C)C)cc1  Jack Bean Urease (Canavalia ensiformis)          70.5%
5      CCCCCCCCCCCCCCCc1nnc(S)n1N=Cc1ccccc1  Jack Bean Urease (Canavalia ensiformis)          72.9%

Prompt: Missing value: inhibition at 75 µg/mL, Jack Bean Urease (Canavalia ensiformis), entry `CCCCCCCCCCCCCCCc1nnc(S)n1N=Cc1cc(OC)c(OC)c(OC)c1` . Fill in?
Completion: 70.9%

Prompt: Next up: `CCCCCCCCCCCCCCCc1nnc(S)n1N=Cc1ccc(Cl)cc1Cl`
Completion: 52.6%

Prompt: Next up: `CCCCCCCCCCCCCCCc1nnc(S)n1N=Cc1cccc(Cl)c1`
Completion: 70.9%

----------
System: Bacillus subtilis
Assay: In vitro antimicrobial screening, tube dilution method
Type: cell-based
Conditions: Bacillus subtilis; B. substilis, Gram +ve; nutrient broth, 37 ± 1 °C, 24 h; read-out: Minimum inhibitory concentration
Description: The in vitro antimicrobial screening of the synthesized 1,2,4-triazole derivatives (T1–T20) in μM was determined against Gram-positive Bacillus subtilis, […], Gram-negative Escherichia coli bacterium and fungal strains Candida albicans and Aspergillus niger by tube dilution method using ciprofloxacin, amoxycillin (antibacterial) and fluconazole (antifungal) as reference drugs. DMSO was used to dissolve the reference and sample derivatives (T1–T20). […]
Result type: MIC (µM)
Report the figure in µM without appending any unit label.

// below: answered compounds
>>> df
                                   compound  value_units  readout_value
0  O=C(O)c1cn(C2CC2)c2cc(N3CCNCC3)c(F)cc2c1=O [Ciprofloxacin, reference compound]           µM             18
1  CCCCCCCCCCCCCCCc1nnc(S)n1N=Cc1ccc(OC)c(OC)c1           µM           52.6
2   CCCCCCCCCCCCCCCc1nnc(S)n1N=Cc1ccc(C)cc1           µM           58.3
3  CCCCCCCCCCCCCCCc1nnc(S)n1N=Cc1ccc([N+](=O)[O-])cc1           µM           54.3
4  CCCCCCCCCCCCCCCc1nnc(S)n1N=Cc1ccc(N(C)C)cc1           µM           54.6

Prompt: MIC lookup needed for `CCCCCCCCCCCCCCCc1nnc(S)n1N=Cc1ccccc1` , thanks.
Completion: 120

Prompt: Next up: `CCCCCCCCCCCCCCCc1nnc(S)n1N=Cc1ccccc1O`
Completion: 116

----------
experiment: DPPH free radical scavenging activity; conditions: DPPH, 75 µg/ml
Listed here: items and their measured % inhibition.
Report the figure in % without appending any unit label.

// below: answered compounds
                                   compound  readout_value
0  CCCCCCCCCCCCCCCc1nnc(S)n1N=Cc1ccc(Cl)cc1Cl          68.56
1  CCCCCCCCCCCCCCCc1nnc(S)n1N=Cc1ccc(Cl)cc1          70.89

Prompt: % inhibition lookup needed for `CCCCCCCCCCCCCCCc1nnc(S)n1N=Cc1ccc(OC)c(OC)c1` , thanks.
Completion: 88.61

----------
target: Jack Bean Urease (Canavalia ensiformis); experiment: biochemical
Result type: pIC50
Please express pIC50 as -log10 of the molar concentration.

// below: answered compounds
>>> df
                                smiles_data  result_type  readout_value
0  CCCCCCCCCCCCCCCc1nnc(S)n1N=Cc1ccccc1[N+](=O)[O-]        pIC50           3.88
1     CCCCCCCCCCCCCCCc1nnc(S)n1N=Cc1ccccc1O        pIC50           3.92
2      CCCCCCCCCCCCCCCc1nnc(S)n1N=Cc1ccccc1        pIC50           3.90
3   CCCCCCCCCCCCCCCc1nnc(S)n1N=Cc1ccc(C)cc1        pIC50           3.90

Prompt: pIC50 lookup needed for `CCCCCCCCCCCCCCCc1nnc(S)n1N=Cc1ccc(OC)c(OC)c1` , thanks.
Completion: 3.97

Prompt: Next up: `CCCCCCCCCCCCCCCc1nnc(S)n1N=Cc1cccc(Cl)c1`
Completion: 3.94

Prompt: Next up: `CCCCCCCCCCCCCCCc1nnc(S)n1N=Cc1ccc(Br)cc1`
Completion: 3.87

Prompt: Next up: `CCCCCCCCCCCCCCCc1nnc(S)n1N=Cc1cc(OC)c(OC)c(OC)c1`
Completion: 3.97

Prompt: Next up: `CCCCCCCCCCCCCCCc1nnc(S)n1N=Cc1cccc([N+](=O)[O-])c1`
Completion: 3.94
